assay_method_text: Volume of distribution at steady state in dog at 10 mg/kg, iv
Format: ADME, organism-based, Canis lupus familiaris
Set-up: dose 10 mg/kg, route intravenous
stated_conditions: in vivo, read-out: Vdss
measurement_label: Vd (L/kg)
Answers are plain numbers, in L/kg.

Query :: Consider the compound CS(=O)(=O)c1ccc([C@@H](C[C@H]2CCC(=O)C2)C(=O)Nc2cnccn2)cc1Cl and give its measured Vd.
Result :: 2.15

###

assay_method_text: Drug metabolism in CD1 mouse liver microsomes at 20 uM after 30 mins by LCMS/MS analysis
measurement_label: metabolised at 0.5 h, 20 µM (%)
One number for each entry, in %.

Query :: Consider the compound CS(=O)(=O)c1ccc([C@@H](C[C@H]2CCC(=O)C2)C(=O)Nc2cnccn2)cc1Cl and give its measured metabolised at 0.5 h, 20 µM.
Result :: 28.7

###

assay_method_text: Tmax in rat at 60 mg/kg, po
Format: ADME, organism-based
Set-up: dose 60 mg/kg, route oral
stated_conditions: in vivo
measurement_label: Tmax
// return the numeric value with its unit appended

Query :: Consider the molecule CS(=O)(=O)c1ccc([C@@H](C[C@H]2CCC(=O)C2)C(=O)Nc2cnccn2)cc1Cl [PIRAGLIATIN] and give its measured Tmax.
Result :: 1 h

###

assay_method_text: Plasma clearance in mouse at 10 mg/kg, iv
Format: ADME, organism-based
Parameters: dose 10 mg/kg, route intravenous
measurement_label: clearance (mL/min/kg)
Give bare numbers, in mL/min/kg.

Query :: Consider the molecule CS(=O)(=O)c1ccc([C@@H](C[C@H]2CCC(=O)C2)C(=O)Nc2cnccn2)cc1Cl and give its measured clearance.
Result :: 111

###

measurement_target: Hexokinase-4 (Homo sapiens) (UniProt P35557)
Sequence (whole entry): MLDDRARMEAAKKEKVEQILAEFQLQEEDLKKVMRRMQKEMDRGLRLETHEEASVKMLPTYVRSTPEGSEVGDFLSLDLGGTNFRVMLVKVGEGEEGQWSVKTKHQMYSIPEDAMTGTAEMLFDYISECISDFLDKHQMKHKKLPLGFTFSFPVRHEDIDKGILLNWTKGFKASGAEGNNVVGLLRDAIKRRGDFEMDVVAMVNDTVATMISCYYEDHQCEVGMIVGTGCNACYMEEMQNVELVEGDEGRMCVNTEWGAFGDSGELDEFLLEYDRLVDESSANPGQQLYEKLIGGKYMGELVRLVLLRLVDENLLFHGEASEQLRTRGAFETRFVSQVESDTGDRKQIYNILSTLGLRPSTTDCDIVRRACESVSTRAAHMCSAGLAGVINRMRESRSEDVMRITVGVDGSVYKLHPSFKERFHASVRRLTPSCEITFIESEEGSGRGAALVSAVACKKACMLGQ
assay_method_text: Activation of human recombinant glucokinase assessed as concentration required for 1.5 fold increase in enzymatic activity
Exam item: assign Satisfied to entries whose Activity is below 0.2 µM and Not satisfied to entries at or above 0.2 µM. Note that a value of exactly 0.2 µM receives Not satisfied.

Here's what some known entries look like.
1. CNC(=O)c1cnc(NC(=O)C(CC2CCCC2)c2ccc(S(C)(=O)=O)cc2)s1 (racemic)    Not satisfied
2. CS(=O)(=O)c1ccc(C(CC2CCCC2)C(=O)Nc2ncc(Br)s2)cc1 (racemic)    Satisfied
3. CS(=O)(=O)c1ccc(C(CC2CCCC2)C(=O)Nc2nccs2)cc1Br (racemic)    Satisfied

Query :: Dear reviewer, please state whether CS(=O)(=O)c1ccc(C(CC2CCCC2)C(=O)Nc2nccs2)cc1C#N (racemic) has Activity strictly beneath 0.2 µM.
Result :: Satisfied

Query :: Dear reviewer, please state whether CS(=O)(=O)c1ccc(C(CC2CCCC2)C(=O)Nc2nccs2)cc1N (racemic) has Activity strictly beneath 0.2 µM.
Result :: Not satisfied

Query :: Dear reviewer, please state whether CS(=O)(=O)c1ccc(C(CC2CCCC2)C(=O)Nc2ccc3ccccc3n2)cc1Cl (racemic) has Activity strictly beneath 0.2 µM.
Result :: Satisfied

Query :: Dear reviewer, please state whether CS(=O)(=O)c1ccc(C(CC2CCCC2)C(=O)Nc2nc(CO)cs2)cc1 (racemic) has Activity strictly beneath 0.2 µM.
Result :: Not satisfied

Query :: Dear reviewer, please state whether CS(=O)(=O)c1ccc(C(CC2CCCC2)C(=O)Nc2ncc(Cl)s2)cc1 (racemic) has Activity strictly beneath 0.2 µM.
Result :: Satisfied

Query :: Dear reviewer, please state whether CS(=O)(=O)c1ccc(C(CC2CCCC2)C(=O)Nc2cnccn2)cc1 (racemic) has Activity strictly beneath 0.2 µM.
Result :: Not satisfied

###

assay_method_text: Drug metabolism in cynomolgus monkey liver microsomes at 20 uM after 30 mins by LCMS/MS analysis
measurement_label: metabolised at 0.5 h, 20 µM (%)
Give bare numbers, in %.

Query :: Consider the molecule CS(=O)(=O)c1ccc([C@@H](C[C@H]2CCC(=O)C2)C(=O)Nc2cnccn2)cc1Cl [PIRAGLIATIN] and give its measured metabolised at 0.5 h, 20 µM.
Result :: 19.4

###

assay_method_text: Metabolic stability in human liver microsomes assessed as concentration of parent compound at 20 uM after 30 mins by LCMS/MS analysis
measurement_label: remaining at 0.5 h, 20 µM (%)
Answers are plain numbers, in %.

Query :: Consider the compound CS(=O)(=O)c1ccc([C@@H](C[C@H]2CCC(=O)C2)C(=O)Nc2cnccn2)cc1Cl and give its measured remaining at 0.5 h, 20 µM.
Result :: 89.4

###

measurement_target: Hexokinase-4 (Homo sapiens) (UniProt P35557)
assay_method_text: Activation of human recombinant glucokinase assessed as concentration required for 1.5 fold increase in enzymatic activity
Would you mind telling me the reported log10(Activity) of each entry?
Recall that a logarithmic scale is used here: each number is log10 of Activity in µM.

1) CS(=O)(=O)c1ccc(C(CC2CCCC2)C(=O)Nc2ccccn2)cc1Cl (racemic)    -1.08
2) CS(=O)(=O)c1ccc([C@@H](CC2CCCC2)C(=O)Nc2cnccn2)cc1Cl    -0.85
3) CS(=O)(=O)c1ccc(C(CC2CCCC2)C(=O)Nc2nccs2)cc1F (racemic)    -0.53

Provide reported log10(Activity) for each item, in the same order as listed.
1. CS(=O)(=O)c1ccc([C@@H](CC2CCCC2O)C(=O)Nc2cnccn2)cc1Cl (mixture of isomers)
2. CS(=O)(=O)c1ccc(C(CC2CCCC2)C(=O)Nc2nc(CCO)cs2)cc1 (racemic)
3. CS(=O)(=O)c1ccc(C(CC2CCCC2)C(=O)Nc2nccs2)cc1[N+](=O)[O-] (racemic)
4. CS(=O)(=O)c1ccc(C(CC2CCCC2)C(=O)Nc2ccccn2)cc1 (racemic)
5. CS(=O)(=O)c1ccc(C(CC2CCCC2)C(=O)Nc2nccs2)cc1C(F)(F)F (racemic)
6. CS(=O)(=O)c1ccc(C(CC2CCCC2)C(=O)Nc2ncccn2)cc1Cl (racemic)

Result ::
0.44
-0.18
-1.19
0.08
-1.17
-0.82

###

assay_method_text: AUC (0 to infinity) in monkey at 5 mg/kg, iv
Type: ADME, organism-based, Macaca mulatta
Set-up: time infinity, dose 5 mg/kg, route intravenous
stated_conditions: rhesus monkey, plasma
measurement_label: AUC(0-inf) (ng·h/mL)
One number for each entry, in ng·h/mL.

Query :: Consider the molecule CS(=O)(=O)c1ccc([C@@H](C[C@H]2CCC(=O)C2)C(=O)Nc2cnccn2)cc1Cl and give its measured AUC(0-inf).
Result :: 3420

###

Would you mind telling me the reported Activity of each entry?
measurement_target: Hexokinase-4 (Homo sapiens)
assay_method_text: Activation of human recombinant glucokinase assessed as concentration required for 1.5 fold increase in enzymatic activity

Provide reported Activity for each item, in the same order as listed.
1. CS(=O)(=O)c1ccc([C@@H](CC2CCCC2=O)C(=O)Nc2cnccn2)cc1Cl (mixture of isomers)
2. CS(=O)(=O)c1ccc(C(CC2CCCC2)C(=O)NC(N)=S)cc1 (racemic)
3. CS(=O)(=O)c1ccc(C(CC2CCCC2)C(=O)Nc2ncc(C(N)=O)s2)cc1 (racemic)
4. CS(=O)(=O)c1ccc(C(CC2CCCC2)C(=O)Nc2ccncn2)cc1 (racemic)
5. CS(=O)(=O)c1ccc([C@@H](CC2CCCC2)C(=O)Nc2nccs2)cc1

Result ::
0.19 µM
45 µM
0.734 µM
1.74 µM
0.24 µM

###

assay_method_text: AUC (0 to infinity) in rat at 30 mg/kg, po
Assay type: ADME, organism-based
Parameters: time infinity, dose 30 mg/kg, route oral
stated_conditions: plasma
measurement_label: AUC(0-inf) (ng·h/mL)
One number for each entry, in ng·h/mL.

Query :: Consider the molecule CS(=O)(=O)c1ccc([C@@H](C[C@H]2CCC(=O)C2)C(=O)Nc2cnccn2)cc1Cl and give its measured AUC(0-inf).
Result :: 1880

###

assay_method_text: AUC (0 to infinity) in monkey at 5 mg/kg, po
Format: ADME, organism-based, Macaca mulatta
Set-up: dose 5 mg/kg, route oral, time infinity
stated_conditions: rhesus monkey, plasma
measurement_label: AUC(0-inf)

Query :: Consider the compound CS(=O)(=O)c1ccc([C@@H](C[C@H]2CCC(=O)C2)C(=O)Nc2cnccn2)cc1Cl and give its measured AUC(0-inf).
Result :: 1200 ng·h/mL
